I'd be grateful if you could share measured Kp uu for these entries.
testName: Unbound tissue partition coefficient, ratio of drug level in adipose to plasma in Wistar Han rat at 1 to 2 mg/kg, iv infused for 10 to 20 hrs by LC-MS/MS analysis
conditionDescription: adipose/plasma

| sampleSmiles | Kp uu |
| --- | --- |
| NC(=O)c1c(-c2ccc(Oc3ccc(Cl)cc3)cc2)nn([C@@H]2CCCN(C(=O)/C=C/CO)C2)c1N | 2 |
| Cc1ccc(CC(C)(C)NC[C@@H](O)CO[C@H](C)c2ccccc2-c2ccc(C(=O)O)c(C)c2)cc1F | 2.5 |
| CC(C)(O)CS(=O)(=O)c1ccc2c(c1)nc(C(C)(C)C)n2CC1CCOCC1 | 1.7 |
| C[C@H](CN1CCOCC1)n1/c(=N\C(N)=O)[nH]c2cc(/C=C3\c4ccccc4COc4cc(F)ccc43)ccc21 | 0.87 |

Here is the next item to consider.
Input CC(=O)NS(=O)(=O)c1ccc(Oc2ccc(F)c(Cl)c2)c(C(F)(F)F)c1 . Output Kp uu: 1.6

====

testName: Total plasma concentration in Wistar Han rat at 1 to 2 mg/kg, iv infused for 10 to 20 hrs by LC-MS/MS analysis
conditionDescription: in vivo
readoutType: Cp (ng/mL)
Answers are plain numbers, in ng/mL.

Here's what some known entries look like.
| compound | readoutUnit | Cp |
| --- | --- | --- |
| Cc1c(C(=O)O)cnn1-c1nc(-c2cccc(C(F)(F)F)c2)cs1 | ng/mL | 93 |
| COc1cc2nc(N3CCN(C(=O)c4ccco4)CC3)nc(N)c2cc1OC [PRAZOSIN] | ng/mL | 40 |

I need Cp for every entry listed below, if you could help.
1. O=C(O)C(=O)Nc1ccc(NC(=O)[C@H](CC2CCCC2)n2cnc(C(F)(F)F)c2)nc1
2. COc1cc2c(cc1Cc1ccccc1)C[C@H](N)C(=O)N2OC(=O)N(C)C

Data returned:
1: 110; 2: 18

====

testName: Drug concentration in total white adipose tissue in Wistar Han rat at 1 to 2 mg/kg, iv infused for 10 to 20 hrs by LC-MS/MS analysis
conditionDescription: in vivo
Measured Ct determines class: low: < 20 ng/mL; moderate: ≥ 20 ng/mL and < 30 ng/mL; high: ≥ 30 ng/mL

Data request: Could you place CCC[C@H](Oc1cc(C)c(-n2cc(C(F)(F)F)cn2)c(C)c1)c1ccc(C(=O)NCCC(=O)O)cc1 [PF-06291874] in its proper category? Many thanks.
Data returned: low

Data request: Could you place N#Cc1ccc(N2N=C(N3CCC(C(=O)N4CCC(O)CC4)CC3)C[C@H]2C2CCCC2)cc1Cl in its proper category? Many thanks.
Data returned: high

Data request: Could you place COc1cc2c(cc1Cc1ccccc1)C[C@H](N)C(=O)N2OC(=O)N(C)C in its proper category? Many thanks.
Data returned: high

====

testName: Total plasma concentration in Wistar Han rat at 1 to 2 mg/kg, iv infused for 10 to 20 hrs by LC-MS/MS analysis
conditionDescription: in vivo
readoutType: Cp (ng/mL)
Answers are plain numbers, in ng/mL.

Here's what some known entries look like.
| sampleSmiles | readoutType | measured |
| --- | --- | --- |
| O=C(O)[C@@H]1CCCN(C(=O)n2cnc(-c3ccc(-c4cnc(N5CCOCC5)nc4)cc3)n2)[C@H]1c1ccccc1 | Cp | 120 |
| CC(C)(O)CS(=O)(=O)c1ccc2c(c1)nc(C(C)(C)C)n2CC1CCOCC1 | Cp | 55 |
| O=C(c1cccc(N2CCNCC2)n1)N1CCC(c2ccccc2F)CC1 | Cp | 42 |

I need Cp for every entry listed below, if you could help.
1. O=C(O)c1c[nH]c2cc(Cl)c(-c3ccc(CC(=O)N4CCOCC4)cc3)cc12
2. O=C(O)c1nc2cc(Cl)c(Cl)cc2nc1O
3. COc1cc2c(OC[C@H]3NC(=O)[C@@H]4C[C@]34C)nccc2cc1C(N)=O
4. COc1ccc2ncc(F)c([C@@H](O)CC[C@@H]3CCN(CCSc4cccs4)C[C@@H]3C(=O)O)c2c1

Data returned:
[72, 56, 110, 79]

====

I'd be grateful if you could share measured fraction unbound at 6 h, 2 µM for these entries.
testName: Fraction unbound in Wistar Han rat plasma at 2 uM incubated for 6 hrs by equilibrium dialysis method
Numbers only.

| compound | fraction unbound at 6 h, 2 µM |
| --- | --- |
| Nc1noc2ccc(-c3cc(Cl)ccc3Oc3cc(F)c(S(=O)(=O)Nc4cscn4)cc3F)cc12 | 0.00155 |
| Cc1nc2cc(-c3cc(F)cc(C#N)c3)ccc2s1 | 0.00655 |
| NC(=O)c1c(-c2ccc(Oc3ccc(Cl)cc3)cc2)nn([C@@H]2CCCN(C(=O)/C=C/CO)C2)c1N | 0.0219 |
| O=C(NC(c1ccccc1)c1ccccc1)C1CC1 | 0.0667 |
| CN(C)C(=O)C(CCN1CCC(O)(c2ccc(Cl)cc2)CC1)(c1ccccc1)c1ccccc1 [LOPERAMIDE] | 0.0462 |

I need fraction unbound at 6 h, 2 µM for every entry listed below, if you could help.
1. Cc1nc([C@@H]2CCOC2)c2c(N3CCc4c(c(C5CC5)nn4C)C3)ncnn12
2. CC(C)n1ncc2c1C(=O)CC1(CCN(C(=O)c3ccc4[nH]nc(C(N)=O)c4c3)CC1)C2
3. O=C(O)c1nc2cc(Cl)c(Cl)cc2nc1O
4. CCCC(Oc1ccc(-n2cc3ccccc3n2)cc1)c1ccc(C(=O)NCCC(=O)O)cc1 (stereo not drawn)
5. C[C@H](c1nc2cnc(N3CCC[C@@H](C(=O)N4CCCC4)C3)nc2[nH]1)n1cc(Cl)cn1
6. COc1ccc(Cc2cc([C@@H]3OC4(COC4)[C@@H](O)[C@H](O)[C@H]3O)ccc2C)cc1
7. O=C(O)[C@@H]1CCCN(C(=O)n2cnc(-c3ccc(-c4cnc(N5CCOCC5)nc4)cc3)n2)[C@H]1c1ccccc1
8. CO[C@@H]1C[C@H](C(=O)Nc2ccc(-n3cc(Cl)ccc3=O)cc2F)N(C(=O)Nc2ccc(Cl)cc2)C1

Data returned:
1: 0.178; 2: 0.119; 3: 0.0414; 4: 0.0034; 5: 0.186; 6: 0.212; 7: 0.00273; 8: 0.0543

I need fraction unbound at 6 h, 2 µM for every entry listed below, if you could help.
1. CN(C)C(=O)c1cc(CC(=O)O)ccc1NC(=O)c1ccccc1-c1ccc(C(F)(F)F)cc1
2. N#Cc1ccc(N2N=C(N3CCC(C(=O)N4CCC(O)CC4)CC3)C[C@H]2C2CCCC2)cc1Cl

Data returned:
0.214
0.00962

I need fraction unbound at 6 h, 2 µM for every entry listed below, if you could help.
1. CC1(C)CN(CCC#N)C(=O)[C@@H]1Oc1ccc(C#N)c(C(F)(F)F)c1
2. Cc1ccc(CC(C)(C)NC[C@@H](O)CO[C@H](C)c2ccccc2-c2ccc(C(=O)O)c(C)c2)cc1F
3. Oc1noc2cc(Cl)c(Cl)cc12
4. CN(C)C[C@@H](OC(=O)N1Cc2c(NC(=O)C3(C(F)(F)F)CC3)n[nH]c2C1(C)C)c1ccccc1
5. Cc1c(C(=O)O)cnn1-c1nc(-c2cccc(C(F)(F)F)c2)cs1
6. CC(C)C[C@H](Nc1ccc(C(=O)NCCC(=O)O)cn1)c1ccc(-c2ccc(C(F)(F)F)cn2)cc1
7. CC(C)(O)CS(=O)(=O)c1ccc2c(c1)nc(C(C)(C)C)n2CC1CCOCC1

Data returned:
[0.358, 0.00353, 0.00445, 0.362, 0.00965, 0.0141, 0.469]

Input CCCn1cnc(C[C@H](CCCN)C(=O)O)c1 . Output fraction unbound at 6 h, 2 µM: 0.686

====

testName: Apparent permeability of the compound across dog RRCK cells by MDCK-LE assay
readoutType: Papp (×10⁻⁶ cm/s)
Give bare numbers, in ×10⁻⁶ cm/s.

| sampleSmiles | measured |
| --- | --- |
| Cc1nc([C@@H]2CCOC2)c2c(N3CCc4c(c(C5CC5)nn4C)C3)ncnn12 | 30 |
| CC1(C)CN(CCC#N)C(=O)[C@@H]1Oc1ccc(C#N)c(C(F)(F)F)c1 | 40 |
| COc1ccc(Cc2cc([C@@H]3OC4(COC4)[C@@H](O)[C@H](O)[C@H]3O)ccc2C)cc1 | 5.8 |

I need Papp for every entry listed below, if you could help.
1. O=C(O)c1c[nH]c2cc(Cl)c(-c3ccc(CC(=O)N4CCOCC4)cc3)cc12
2. C[C@H](c1nc2cnc(N3CCC[C@@H](C(=O)N4CCCC4)C3)nc2[nH]1)n1cc(Cl)cn1
3. COc1cc2nc(N3CCN(C(=O)c4ccco4)CC3)nc(N)c2cc1OC

Data returned:
[2.4, 24, 26]

I need Papp for every entry listed below, if you could help.
1. COCCCN1C[C@H](C)N(C(=O)N2Cc3c(NC(=O)c4ccccn4)n[nH]c3C2(C)C)C[C@H]1C
2. COc1cc2c(OC[C@H]3NC(=O)[C@@H]4C[C@]34C)nccc2cc1C(N)=O

Data returned:
[21, 19]

The reported numbers originate from ChEMBL document CHEMBL4373746.
